Origin of the recorded values: ChEMBL document CHEMBL4261655

- System Tested: Macrophage metalloelastase (Homo sapiens, UniProt P39900)
- Sequence (P39900 whole entry): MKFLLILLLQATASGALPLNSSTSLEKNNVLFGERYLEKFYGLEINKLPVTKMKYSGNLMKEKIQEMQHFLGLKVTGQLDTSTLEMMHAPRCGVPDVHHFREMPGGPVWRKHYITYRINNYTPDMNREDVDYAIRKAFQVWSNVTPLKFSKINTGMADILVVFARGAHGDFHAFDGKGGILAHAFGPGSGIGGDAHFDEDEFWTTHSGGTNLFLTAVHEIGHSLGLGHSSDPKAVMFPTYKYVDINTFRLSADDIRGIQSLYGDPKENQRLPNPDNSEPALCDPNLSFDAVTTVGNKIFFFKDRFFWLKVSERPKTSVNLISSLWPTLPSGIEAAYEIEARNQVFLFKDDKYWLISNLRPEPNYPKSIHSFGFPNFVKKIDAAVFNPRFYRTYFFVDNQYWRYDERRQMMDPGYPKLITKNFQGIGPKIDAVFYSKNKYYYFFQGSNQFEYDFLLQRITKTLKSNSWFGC
- Experiment Description: Inhibition of recombinant human MMP12 using Mca-Lys-Pro-Leu-Gly-Leu-Dap(Dnp)-Ala-Arg-NH2 as substrate preincubated for 3 hrs followed by substrate addition and measured every 10 secs for 15 mins by fluorescence assay
pIC50: −log10 of the molar value.
Measured Endpoint: pIC50

{"Compound": "CO[C@@H]1O[C@H](CN([C@@H](C(=O)O)C(C)C)S(=O)(=O)c2ccc(-c3ccccc3)cc2)[C@@H](O)[C@H](O)[C@H]1O", "System Tested": "Macrophage metalloelastase (Homo sapiens, UniProt P39900)", "pIC50": 7.29}

P. CC(=O)OC[C@H]1O[C@@H](NC(=S)NCCN([C@@H](C(=O)O)C(C)C)S(=O)(=O)c2ccc(-c3ccccc3)cc2)[C@H](OC(C)=O)[C@@H](OC(C)=O)[C@@H]1OC(C)=O
Q. CO[C@@H]1O[C@H](CN([C@@H](C(=O)O)C(C)C)S(=O)(=O)c2ccc(-c3ccccc3)cc2)C(O)[C@H](O)C1NC(C)=O (single isomer, unassigned)
Request: I'm curious whether P or Q has the smaller pIC50 number. Which is it? Bench note: the answer is the label of the chosen record.
Result: Q

a. CO[C@@H]1O[C@H](CNC(=S)NCCN([C@@H](C(=O)O)C(C)C)S(=O)(=O)c2ccc(-c3ccccc3)cc2)[C@@H](O)[C@H](O)[C@H]1O
b. CC(C)[C@H](C(=O)O)N([C@@H]1O[C@H](CO)[C@@H](O)[C@H](O)[C@H]1O)S(=O)(=O)c1ccc(-c2ccccc2)cc1
c. CC(=O)OC[C@H]1O[C@@H](N([C@@H](C(=O)O)C(C)C)S(=O)(=O)c2ccc(-c3ccccc3)cc2)[C@H](OC(C)=O)[C@@H](OC(C)=O)[C@@H]1OC(C)=O
Request: # desc sort on pIC50 across 3 compounds Write the labels, ordered according to the request.
Result: a, b, c

* * *

- System Tested: Matrix metalloproteinase-9 (Homo sapiens, UniProt P14780)
- Sequence (P14780 whole entry): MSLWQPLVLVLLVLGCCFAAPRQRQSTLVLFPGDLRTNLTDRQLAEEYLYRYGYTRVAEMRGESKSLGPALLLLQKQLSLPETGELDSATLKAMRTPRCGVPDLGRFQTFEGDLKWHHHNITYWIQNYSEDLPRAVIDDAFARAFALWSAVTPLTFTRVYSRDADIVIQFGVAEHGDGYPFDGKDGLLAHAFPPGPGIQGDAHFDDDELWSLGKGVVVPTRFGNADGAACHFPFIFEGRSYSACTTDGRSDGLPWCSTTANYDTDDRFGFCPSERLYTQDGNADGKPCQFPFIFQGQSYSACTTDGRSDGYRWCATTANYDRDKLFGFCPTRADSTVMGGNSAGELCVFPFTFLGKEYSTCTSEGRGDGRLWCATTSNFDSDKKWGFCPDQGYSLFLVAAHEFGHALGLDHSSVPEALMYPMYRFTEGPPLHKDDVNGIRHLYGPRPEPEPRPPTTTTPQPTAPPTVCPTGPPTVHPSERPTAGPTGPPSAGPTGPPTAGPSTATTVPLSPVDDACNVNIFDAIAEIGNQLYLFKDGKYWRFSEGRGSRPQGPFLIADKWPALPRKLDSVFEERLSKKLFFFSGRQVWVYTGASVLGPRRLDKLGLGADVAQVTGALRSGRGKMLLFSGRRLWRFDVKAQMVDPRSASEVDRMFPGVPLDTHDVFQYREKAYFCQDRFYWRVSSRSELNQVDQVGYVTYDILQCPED
- Experiment Description: Inhibition of recombinant human MMP9 using Mca-Lys-Pro-Leu-Gly-Leu-Dap(Dnp)-Ala-Arg-NH2 as substrate preincubated for 3 hrs followed by substrate addition and measured every 10 secs for 15 mins by fluorescence assay
Measured Endpoint: IC50 (nM)

{"Molecule": "CO[C@@H]1O[C@H](CN([C@@H](C(=O)O)C(C)C)S(=O)(=O)c2ccc(-c3ccccc3)cc2)C(O)[C@H](O)C1NC(C)=O (single isomer, unassigned)", "Unit": "nM", "Number": 890}
{"Molecule": "CC(C)[C@H](C(=O)O)N(CCNC(=S)N[C@@H]1O[C@H](CO)[C@@H](O)[C@H](O)[C@H]1O)S(=O)(=O)c1ccc(-c2ccccc2)cc1", "Unit": "nM", "Number": 1120}
{"Molecule": "CC(=O)N[C@@H]1[C@@H](OC(C)=O)[C@H](OC(C)=O)[C@@H](COC(C)=O)O[C@H]1NC(=S)NCCN([C@@H](C(=O)O)C(C)C)S(=O)(=O)c1ccc(-c2ccccc2)cc1", "Unit": "nM", "Number": 1200}
